Assay Target: Renin (Homo sapiens)
Sequence (P00797 67-406): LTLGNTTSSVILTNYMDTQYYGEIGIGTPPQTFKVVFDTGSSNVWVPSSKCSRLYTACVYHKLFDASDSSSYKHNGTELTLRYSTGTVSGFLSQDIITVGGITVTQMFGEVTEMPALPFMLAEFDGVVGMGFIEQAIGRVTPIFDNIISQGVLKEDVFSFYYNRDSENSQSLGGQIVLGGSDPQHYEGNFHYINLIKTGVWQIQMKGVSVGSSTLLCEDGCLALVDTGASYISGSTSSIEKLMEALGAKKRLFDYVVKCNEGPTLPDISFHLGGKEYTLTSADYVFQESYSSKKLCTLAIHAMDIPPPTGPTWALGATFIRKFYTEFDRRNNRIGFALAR
Assay Comment: In-vitro renin inhibition assay (modified Cayman renin inhibitor screening assay, fluorescence)
Format: biochemical
Set-up: purchased Cayman 10006270
Conditions Used: compound concentration 0.1 μM; 37° C., 30 mins; read-out: Renin inhibition (percent inhibition of renin activity) at 0.1 μM
Structures can show the parent of a compound that is named as a salt.
Okay, here is how we bin by inhibition at 0.1 µM: low band: < 50%; middle band: ≥ 50% and < 90%; high band: ≥ 90%

Past entries and their recorded results:
Cc1cc(Cl)c(OCCOc2ccc(CC(CN)C(=O)N3CCCC3)cc2)c(Cl)c1 (stereo not drawn) [Example 23]    middle band
Cc1cc(Cl)c(OCCOc2ccc(CC(CN)C(=O)N3CCCc4cc(OC(F)(F)F)ccc43)cc2)c(Cl)c1 (stereo not drawn) [Example 27, hydrochloride]    high band

IN: Please indicate the class for COCC1CCCN(C(=O)C(CN)Cc2ccc(OCCOc3c(Cl)cc(C)cc3Cl)cc2)C1 (stereo not drawn) [Example 26, hydrochloride] based on its inhibition at 0.1 µM.
OUT: high band

IN: Please indicate the class for Cc1cc(Cl)c(OCCOc2ccc(CC(CN)C(=O)N3CCCCC3)cn2)c(Cl)c1 (stereo not drawn) [Example 42] based on its inhibition at 0.1 µM.
OUT: middle band

IN: Please indicate the class for Cc1cc(Cl)c(OCCOc2ccc(CC(CN)C(=O)N3CCCc4cc(F)ccc43)cn2)c(Cl)c1 (stereo not drawn) [Example 44, hydrochloride] based on its inhibition at 0.1 µM.
OUT: middle band

IN: Please indicate the class for Cc1cc(Cl)c(OCCOc2ccc(CC(CN)C(=O)N3CCCc4ccc(C)c(C)c43)cc2)c(Cl)c1 (stereo not drawn) [Example 9] based on its inhibition at 0.1 µM.
OUT: middle band

IN: Please indicate the class for Cc1ccc(OCCOc2ccc(CC(CN)C(=O)N3CCCc4cc(C(F)(F)F)ccc43)cc2)c(Cl)c1 (stereo not drawn) [Example 33] based on its inhibition at 0.1 µM.
OUT: high band

IN: Please indicate the class for COc1ccc2c(c1)CCCN2C(=O)C(CN)Cc1ccc(OCCOc2c(Cl)cc(C)cc2Cl)cc1 (stereo not drawn) [Example 13] based on its inhibition at 0.1 µM.
OUT: low band

IN: Please indicate the class for Cc1cc(Cl)c(OCCOc2ccc(CC(CN)C(=O)N3CCCc4cc(F)ccc43)cc2)c(Cl)c1 (stereo not drawn) [Example 20] based on its inhibition at 0.1 µM.
OUT: middle band

IN: Please indicate the class for COc1ccccc1COCCCOc1ccc(CC(CN)C(=O)N2CCCc3cc(C(F)(F)F)ccc32)cc1 (stereo not drawn) [Example 47] based on its inhibition at 0.1 µM.
OUT: low band
